- target_or_test_system: PolD DP1 H451A (exonuclease-deficient small subunit);PolD DP2 (large catalytic subunit) (Pyrococcus abyssi;Pyrococcus abyssi, UniProt Q9V2F3;Q9V2F4;Q9V2F4 1-619;1-954;1140-1455, H451A|)
- Sequence (Q9V2F3 whole entry H451A, chain 1 of 3): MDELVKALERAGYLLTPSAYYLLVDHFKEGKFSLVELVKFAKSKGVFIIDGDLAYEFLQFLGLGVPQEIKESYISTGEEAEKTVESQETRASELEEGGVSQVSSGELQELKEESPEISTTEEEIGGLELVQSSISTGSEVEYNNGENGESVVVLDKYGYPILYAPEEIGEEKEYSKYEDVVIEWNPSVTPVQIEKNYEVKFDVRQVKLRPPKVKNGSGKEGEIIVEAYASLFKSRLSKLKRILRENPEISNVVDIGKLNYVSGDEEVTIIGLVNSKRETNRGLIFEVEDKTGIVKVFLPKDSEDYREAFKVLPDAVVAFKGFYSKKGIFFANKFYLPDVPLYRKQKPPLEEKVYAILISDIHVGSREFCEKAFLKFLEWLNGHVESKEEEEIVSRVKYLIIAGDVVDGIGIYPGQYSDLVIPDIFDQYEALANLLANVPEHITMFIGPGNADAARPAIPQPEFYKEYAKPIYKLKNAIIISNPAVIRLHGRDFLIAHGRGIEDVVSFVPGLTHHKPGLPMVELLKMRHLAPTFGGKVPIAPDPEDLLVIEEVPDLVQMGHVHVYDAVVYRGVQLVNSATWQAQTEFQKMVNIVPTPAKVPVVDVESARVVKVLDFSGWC
- Sequence (Q9V2F4 1-954, chain 2 of 3): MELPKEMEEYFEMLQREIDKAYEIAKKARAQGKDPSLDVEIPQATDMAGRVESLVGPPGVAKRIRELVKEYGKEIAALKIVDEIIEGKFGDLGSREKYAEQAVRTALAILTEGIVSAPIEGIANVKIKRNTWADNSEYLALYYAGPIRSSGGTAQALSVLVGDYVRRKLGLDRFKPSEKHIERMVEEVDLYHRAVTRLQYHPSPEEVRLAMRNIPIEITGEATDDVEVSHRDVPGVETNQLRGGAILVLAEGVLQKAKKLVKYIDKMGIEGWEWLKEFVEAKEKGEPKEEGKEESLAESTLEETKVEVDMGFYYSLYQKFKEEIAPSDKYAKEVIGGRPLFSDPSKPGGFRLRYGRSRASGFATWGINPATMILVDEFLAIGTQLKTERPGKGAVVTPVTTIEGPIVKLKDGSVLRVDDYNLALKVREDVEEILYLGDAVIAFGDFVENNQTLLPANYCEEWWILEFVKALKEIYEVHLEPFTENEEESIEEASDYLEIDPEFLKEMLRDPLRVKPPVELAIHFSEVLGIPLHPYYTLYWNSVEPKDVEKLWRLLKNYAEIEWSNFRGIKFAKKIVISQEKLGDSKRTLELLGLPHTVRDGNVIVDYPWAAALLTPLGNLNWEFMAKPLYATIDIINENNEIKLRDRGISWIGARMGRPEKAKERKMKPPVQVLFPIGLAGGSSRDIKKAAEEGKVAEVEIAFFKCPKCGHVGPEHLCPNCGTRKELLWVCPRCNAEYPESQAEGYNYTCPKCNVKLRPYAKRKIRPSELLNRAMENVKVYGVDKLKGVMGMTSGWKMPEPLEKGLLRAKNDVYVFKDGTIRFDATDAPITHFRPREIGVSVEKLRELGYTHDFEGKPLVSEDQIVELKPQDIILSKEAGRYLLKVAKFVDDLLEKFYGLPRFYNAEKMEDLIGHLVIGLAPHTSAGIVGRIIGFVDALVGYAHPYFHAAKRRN
- Sequence (Q9V2F4 1140-1455, chain 3 of 3): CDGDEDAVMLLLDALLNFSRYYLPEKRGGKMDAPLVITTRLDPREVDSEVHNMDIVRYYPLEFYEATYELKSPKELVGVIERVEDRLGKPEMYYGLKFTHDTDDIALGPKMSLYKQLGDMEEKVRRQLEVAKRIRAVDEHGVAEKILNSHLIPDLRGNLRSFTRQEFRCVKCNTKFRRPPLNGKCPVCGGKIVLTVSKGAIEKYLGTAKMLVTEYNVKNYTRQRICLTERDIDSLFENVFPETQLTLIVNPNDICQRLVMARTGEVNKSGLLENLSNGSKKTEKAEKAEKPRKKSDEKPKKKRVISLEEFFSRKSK
- assay_protocol: fluorescence anisotropy; Fluorescence anisotropy: 20 mM sodium succinate pH 6, 100 mM NaCl, 25 C, 5 nM HEX-DNA, PolD up to 600 nM, DP2(1-1061) up to 6 uM
- study_conditions: protein: recombinant;recombinant; tags: N-terminal 14xHis, TEV-cleaved;; copies: 1;1;1; 3'-HEX in assay text; 18 bp duplex, 5' overhang 7 nt on template
pKd: −log10 of the molar value.

| binder | pKd |
| --- | --- |
| HEX primer/template (dsDNA) DNA 1: CGCCGGGCCGAGCCGTGC DNA 2: AGGTCGTGCACGGCTCGGCCCGGCG | 7.82 |
